Provenance of the data: patent US20060293323A1

# TEST: in vivo
# CONDITION LABEL: female, nude, mouse, in vivo, ip
READOUT: MTD (mg/kg)
Report the value in mg/kg with no unit label.

In one line, give reported MTD of the entry COc1cc([C@@H]2c3cc4c(cc3[C@@H](O[C@@H]3O[C@@H]5CO[C@@H](C)O[C@H]5[C@H](O)[C@H]3O)[C@H]3COC(=O)[C@H]23)OCO4)cc(OC)c1O [etoposide] .
50
